Taken from patent US10954214B2.

Test system: TMD8 cells
Experiment: 4-day proliferation assay, TMD8
Assay type: cell-based
Settings: Homo sapiens, 96 h, 4 days incubation, CellTiterGLO, read-out: Anti-proliferation: TMD-8 IC50
IC50 values, listed per item
Just the number please, in nM, no unit attached.

Past entries and their recorded results:
1) O=C(Nc1cnc(-n2nccn2)c(Br)c1)c1cnn(-c2cccc3ncccc23)c1C(F)(F)F :: 1410
2) O=C(Nc1cnc(-n2nccn2)c(Cl)c1)c1cnn(-c2cccn3nccc23)c1C(F)(F)F :: 7410
3) N#Cc1cc(NC(=O)c2cnn(-c3ccc(F)c4ncccc34)c2C(F)(F)F)cnc1-n1nccn1 :: 4570
4) O=C(Nc1cnc(-n2nccn2)c(Cl)c1)c1cnn(-c2cncc3sccc23)c1C(F)(F)F :: 2190

Ask: Tell me the measured IC50 of `N#Cc1cc(NC(=O)c2cnn(-c3cncc4ccccc34)c2C(F)(F)F)ccc1-n1ccnn1` , please.
Reply: 10000

Ask: Would you mind doing `N#Cc1cc(NC(=O)c2cnn(-c3ccnc4ccccc34)c2C(F)(F)F)cnc1-n1nccn1` as well?
Reply: 2510

---

Test system: IL10 secretion by TMD8 ABC-DLBCL cells
Assay: Human IL10 Mesoscale assay (TMD-8)
Type: cell-based
Settings: Homo sapiens, TMD8; TMD-8 cells, 24 h
Reported log10 of IC50 values for the following compounds.
Would you kindly interpret these values as log10 of IC50 expressed in nM?

1) Cn1ccc2c(-n3ncc(C(=O)Nc4cnc(-n5nccn5)c(Cl)c4)c3C(F)(F)F)cccc2c1=O [Cpd 226] :: 1.97
2) Cc1nc(-n2nccn2)c(Cl)cc1NC(=O)c1cnn(-c2ccc(F)c3nccn23)c1C(F)(F)F [Cpd 203] :: 3.43
3) C[C@@H](O)c1nccc2c(-n3ncc(C(=O)Nc4cnc(-n5nccn5)c(Cl)c4)c3C(F)(F)F)cccc12 (single isomer, unassigned) [Cpd 444] :: 1.80

Ask: What value of log10 of IC50 has been recorded for this entry: CN1CCc2ccc(NC(=O)c3cnn(-c4cccc5ncccc45)c3C(F)(F)F)cc2C1=O [Cpd 212]
Reply: 2.71

Ask: Another: N#Cc1cc(NC(=O)c2cnn(-c3nccc4ccsc34)c2C(F)(F)F)cnc1-n1nccn1 [Cpd 143]
Reply: 1.75

Ask: What about this compound? O=C(Nc1cnc(-n2nccn2)c(F)c1)c1cnn(-c2cncc3ccccc23)c1C(F)(F)F [Cpd 61]
Reply: 2.35

---

Test system: TMD8 cells
Assay: 4-day proliferation assay, TMD8
Format: cell-based
Settings: Homo sapiens, 96 h, 4 days incubation, CellTiterGLO, read-out: Anti-proliferation: TMD-8 IC50
Recorded pIC50, one value per entry.
Conceptually, pIC50 converts a concentration in mol/L into minus its log10.

Answered examples (8):
1. O=C(Nc1cnc(-n2nccn2)c(Cl)c1)c1cnn(-c2cnc(O)c3ccccc23)c1C(F)(F)F :: 5.25
2. O=C(Nc1cnc(-n2nccn2)c(Cl)c1)c1cnn(-c2cccc3ncc(Cl)n23)c1C(F)(F)F :: 5.44
3. CCOc1ncc(NC(=O)c2cnn(-c3cccc4ncccc34)c2C(F)(F)F)cc1C#N :: 4.94
4. Cc1cnn(-c2ncc(NC(=O)c3cnn(-c4cccc5ncccc45)c3C(F)(F)F)cc2Cl)n1 :: 5.99
5. O=C(Nc1ccnc(C(F)(F)F)c1)c1cnn(-c2cccc3ncccc23)c1C(F)(F)F :: 5.03
6. Cc1cc2ccccc2c(-n2ncc(C(=O)Nc3cnc(-n4nccn4)c(Cl)c3)c2C(F)(F)F)n1 :: 4.97
7. CCc1c(C(=O)Nc2cnc(-n3nccn3)c(Cl)c2)cnn1-c1cccc2ncccc12 :: 5.03
8. COC(C)c1c(C(=O)Nc2cnc(-n3nccn3)c(Cl)c2)cnn1-c1cccc2ncccc12 (stereo not shown) :: 4.96

Ask: Reported pIC50 for `Cc1nc(-n2nccn2)c(Cl)cc1NC(=O)c1cnn(-c2cccc3c(=O)[nH]ccc23)c1C(F)(F)F` : what is it?
Reply: 5.20

Ask: Same question, `[2H]c1ccc2c(-n3ncc(C(=O)Nc4cnc(-n5nccn5)c(Cl)c4)c3C(F)(F)F)cccc2n1` this time
Reply: 5.58

Ask: // query: `Cc1nc(-n2nccn2)c(Cl)cc1NC(=O)c1cnn(-c2cccn3nccc23)c1C(F)(F)F`
Reply: 5.52

Ask: Moving on to `O=C(Nc1cnc(-n2ncc(CO)n2)c(Cl)c1)c1cnn(-c2cccc3ncccc23)c1C(F)(F)F`
Reply: 5.64

Ask: Now the same for `N#Cc1cc(NC(=O)c2cnn(-c3cncc4c(F)cccc34)c2C(F)(F)F)cnc1-n1nccn1`
Reply: 6.08

---

Tested on: IL10 secretion by TMD8 ABC-DLBCL cells
Assay: Human IL10 Mesoscale assay (TMD-8)
Type: cell-based
Conditions: Homo sapiens, TMD8; TMD-8 cells, 24 h
pIC50: −log10 of the molar value.
Classification field: T = pIC50 at or over 7; F = pIC50 under 7.

These recorded examples may help you get a feel for the data.
1) O=C(Nc1cnc(-n2nccn2)c(Cl)c1)c1cnn(-c2nccn3nccc23)c1C(F)(F)F [Cpd 141] :: T
2) O=C(Nc1cnc(-n2cc(CO)cn2)c(Cl)c1)c1cnn(-c2cccc3c(=O)[nH]ccc23)c1C(F)(F)F [Cpd 182] :: F
3) N#Cc1cc(NC(=O)c2cnn(-c3ccc(F)c4ccccc34)c2C(F)(F)F)cnc1-n1nccn1 [Cpd 312] :: F

Ask: Can COCc1ncc(-n2ncc(C(=O)Nc3cnc(-n4nccn4)c(Cl)c3)c2C(F)(F)F)c2ccccc12 [Cpd 404] be said to have pIC50 at or above 7?
Reply: F

Ask: Another: NC(=O)c1ncc(-n2ncc(C(=O)Nc3cnc(-n4nccn4)c(Cl)c3)c2C(F)(F)F)c2ccsc12 [Cpd 391]
Reply: T

---

Tested on: IL10 secretion by TMD8 ABC-DLBCL cells
Assay: Human IL10 Mesoscale assay (TMD-8)
Format: cell-based
Settings: Homo sapiens, TMD8; TMD-8 cells, 24 h
pIC50: −log10 of the molar value.
# class assignment by measured pIC50: lower = under 6, middle = from 6 up to 7, upper = 7 and over

1. N#Cc1cc(NC(=O)c2cnn(-c3nccc4ccoc34)c2C(F)(F)F)cnc1-n1nccn1 [Cpd 99] :: upper
2. O=C(Nc1cnc(OC(F)F)c(Cl)c1)c1cnn(-c2cncc3ccccc23)c1C(F)(F)F [Cpd 106] :: middle
3. O=C(Nc1ccnc(C(F)(F)F)c1)c1cnn(-c2cccc3nccn23)c1C(F)(F)F [Cpd 208] :: lower
4. CN1C(=O)COc2ccc(NC(=O)c3cnn(-c4cccc5ncccc45)c3C(F)(F)F)cc21 [Cpd 214] :: lower

Ask: Class label required: COc1nccc2c(-n3ncc(C(=O)Nc4cnc(-n5nccn5)c(Cl)c4)c3C(F)(F)F)cccc12 [Cpd 243]
Reply: middle

Ask: Then this compound: N#Cc1cc(NC(=O)c2cnn(-c3ccnc4sccc34)c2C(F)(F)F)cnc1-n1nccn1 [Cpd 126]
Reply: upper

Ask: What do you get for Cc1nc(-n2nccn2)c(Cl)cc1NC(=O)c1cnn(-c2cncc3c(F)cccc23)c1C(F)(F)F [Cpd 123] ?
Reply: middle

Ask: Field entry: Cc1ncn(-c2ccc(NC(=O)c3cnn(-c4cncc5ccccc45)c3C(F)(F)F)cc2Cl)n1 [Cpd 55]
Reply: middle

Ask: Field entry: CNC(=O)c1ncc(-n2ncc(C(=O)Nc3cnc(-n4nccn4)c(Cl)c3)c2C(F)(F)F)c2ccsc12 [Cpd 392]
Reply: middle

Ask: Note, next up: N#Cc1cnnn1-c1ncc(NC(=O)c2cnn(-c3cccc4ncccc34)c2C(F)(F)F)cc1Cl [Cpd 227]
Reply: middle

Ask: # repeat for NC(=O)c1nccc2c(-n3ncc(C(=O)Nc4cnc(-n5nccn5)c(Cl)c4)c3C(F)(F)F)cccc12 [Cpd 389]
Reply: upper

Ask: What would you report for CC(O)c1ncc(-n2ncc(C(=O)Nc3cnc(-n4nccn4)c(Cl)c3)c2C(F)(F)F)c2ccccc12 (stereo not drawn) [Cpd 371] ?
Reply: upper

Ask: Repeat for the following compound: Cn1ccc2ccc(NC(=O)c3cnn(-c4cccc5ncccc45)c3C(F)(F)F)cc2c1=O [Cpd 216]
Reply: middle

---

Tested on: IL6 secretion by OCI-LY3 ABC-DLBCL cells
Assay: Human IL6 Mesoscale assay (OCI-LY3)
Format: cell-based
Settings: Homo sapiens, 24 h
The reader will find reported IC50 values listed item by item below.

Ask: Item: `NC(=O)c1cnn(-c2ccc(NC(=O)c3cnn(-c4cccc5ncccc45)c3C(F)(F)F)cc2Cl)n1` Test system: IL6 secretion by OCI-LY3 ABC-DLBCL cells Read-out: IC50 Value: ?
Reply: 174 nM

Ask: Then `O=C(Nc1cnc(-n2nccn2)c(Cl)c1)c1cnn(-c2cccc3ncccc23)c1Cl` ?
Reply: 162 nM

Ask: Here is the next compound: `Cc1cc(NC(=O)c2cnn(-c3cccc4scnc34)c2C(F)(F)F)c(C)nc1-n1nccn1`
Reply: 525 nM

Ask: Request: `Cn1nc(-n2ncc(C(=O)Nc3cnc(-n4nccn4)c(C#N)c3)c2C(F)(F)F)c2ccccc21`
Reply: 186 nM

Ask: Ok, now `N#Cc1cc(NC(=O)c2cnn(-c3cccc4ncnn34)c2C(F)(F)F)cnc1-n1nccn1`
Reply: 2750 nM
